experiment: NCI Yeast Anticancer Drug Screen. Data for the cln2 rad14 strain (AID 165);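 also: 0% = growth equal to vehicle treated cultures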; details: S. cerevisiae cln2 rad14 strain, at 50.0 µM, active compounds read high
This is part of a sample that, as a whole, favours compounds with a hit. Of some 79,000 tested, about 15% had one in any assay. The source made the active and inactive calls. Rule as the data show it: active = growth inhibition above about 70%; inactive = the rest.
List of growth inhibition values.

Use the examples below as a reference point.
O=[N+]([O-])C1=C(c2ccccc2)SC(Br)=C(c2ccccc2)S1 :: -0.6% (inactive)
CC(C)N(CCCCO)C(C)C :: 0.05% (inactive)
CC(C)(C)c1ccc2c(c1)CNCCNCCNCc1cc(C(C)(C)C)ccc1OCC1(CO2)COc2ccc(C(C)(C)C)cc2CNCCNCCNCc2cc(C(C)(C)C)ccc2OC1 :: 91.2% (active)
COC(=O)c1nc(=S)[nH]c(C(=O)OC)c1C(=O)c1ccccc1 :: 36% (inactive)
Nc1ccc(Cl)cc1C(=O)N1CCN(c2ccc([N+](=O)[O-])cn2)CC1 :: 36.1% (inactive)

Look at this molecule and give its reported growth inhibition. CC(C#N)c1cn(S(=O)(=O)c2ccccc2)c2ccccc12 (stereo unspecified)
9.75% (inactive)

Let us now turn to `CC(C)[Si](C#CC[Si](C(C)C)(C(C)C)C(C)C)(C(C)C)C(C)C`
-17.6% (inactive)

Same read-out for CCCNC(=O)/C=C\S(=O)CCC (stereo unspecified) ?
-16.5% (inactive)

Next up: CC1CNC(=S)O1 (stereo unspecified)
-7.05% (inactive)

Subsequent entry: [N-]=[N+]=CC(=O)C1OC1c1ccc2ccccc2c1 (stereo unspecified)
1.5% (inactive)

// query: [N-]=[N+]=NCC1OCC(O)C(OCc2ccccc2)C1OCc1ccccc1 (stereo unspecified)
-11.8% (inactive)
